# measurementDescription: protein stability index of a GFP-peptide fusion (GPS, HEK-293T) (PSI 1-6); higher = more stable;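 also: 24-mer peptide tiles fused after GFP, lentivirally expressed, FACS-sorted into six equal bins by GFP/DsRed ratio, decoded by Illumina sequencing, PSI is the read-weighted mean bin number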
# conditionSummary: treatment: DMSO; c terminus: a fixed tail appended
reportedEndpoint: protein stability index

1) IKQIQQLFEEILSNSRQLKWLSCG [FBXO33] ... 3.57
2) QRVVYLEGCGPPLRRWLRANLAAS [TSPAN10] ... 2.26
3) VSPGSPPPPLPNHKYNTTSTSYSP [PLAGL1] ... 4.27
4) ERLLCPSLLAGTADGSLRMDDPKG [M1AP] ... 4.74
5) RESRILFSTWNLDHIIEKKRTIIP [DFFB] ... 2.35
6) DEKYGVPSLEELGFDTDGLSSAVW [CRY1] ... 3.65
7) CTLETTVHASGWNKILVPLVLLRQ [BCL2L13] ... 2.61
8) LPHLQDSFVDKLLDLMPRLMTSKP [INTS4] ... 2.16
9) ATIENNRVILEIDNARLAVDDFRL [KRT13] ... 2.15
10) NPFAKGFRENGRNCKRERDARVKR [TBX6] ... 4.1
11) VEYEERESEFDIEDEDKSEPEQTG [RBBP5] ... 5.64
12) PSDLDLVMSEGLGMRYAFIGPLET [CRYL1] ... 2.46
13) VVKYRRPMDVYETGIEYIVAQGPT [ADAMTSL2] ... 2.13
14) SSSSSSSPTSGSPRGSHSSALERL [LURAP1L] ... 4.83
15) DLINKMLTINPAKRITASEALKHP [CAMK2D] ... 2.49
16) LYYYMTQTEELKYSIDQEFLKEYF [NLN] ... 2.74
17) VAVKKKLQLYFWKDREFHELQGDF [VPS39] ... 2.12
18) KEKWWDGQRDRKAEHWKHKKEESG [PBXIP1] ... 4.54
19) AVLASCSQYFRSLFSSHPPLGGGV [KLHL14] ... 2.4
20) PTQKALYNDVMQENYETVISLALF [ZNF75A] ... 2.57
21) YEFHLEFLDLVKPEPVYKLTQRQV [HACD3] ... 2.54
22) VFGFIAAYVLSKYQYFVCPVEYRS [CDS1] ... 3.38
23) SLHDHDGSSGASDQDTLAPLPHPG [DVL3] ... 5.33
24) STSAVPNLFVPLNTNPKEVQEMRN [ADD1] ... 4.53
25) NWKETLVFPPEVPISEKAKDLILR [STK38L] ... 2.81
26) YVFFEKDFGDMHSYVRSRKRLREE [TRIB1] ... 2.46
27) DIMETSGWKSMIQSHPHLVAEAFR [SPOPL] ... 2.49

---

Catalogue of protein stability index values
# measurementDescription: protein stability index of a GFP-peptide fusion (GPS, HEK-293T) (PSI 1-6); higher = more stable
# conditionSummary: treatment: MLN4924 1 uM, 8 h; c terminus: a fixed tail appended
reportedEndpoint: protein stability index

1) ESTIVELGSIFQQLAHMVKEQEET [STX5] ... 3.25
2) SVDPIAAFCSSDEELEDSKALLYL [RBBP5] ... 4.08
3) GSYGVVFKCRNKTSGQVVAVKKFV [CDKL4] ... 2.16
4) LSDDYEQVRSAAVQLIWVVSQLYP [INTS4] ... 2.13
5) GADNIDVSHPIIYRGAVYADNMEF [FEM1B] ... 3.21
6) NKQGHGCESDIWALGCVMYTMLLG [PLK2] ... 2.54
7) EVSLDSLDLRVKGILSSQAEGLAN [EHMT1] ... 4.05
8) HKRAIMPYGVYKKQQKDPSEEAAV [ATE1] ... 4.44
9) LIGRPGNKTQQVIHIIDFGLAKEY [CSNK1G3] ... 2.4
10) CSLDKRVILIFHCEFSSERGPRMC [CDC25B] ... 2.54
11) VASYILASHNGISYKDLDVIFGVE [TENT5D] ... 2.89
12) LVDMDMADYSAALDPAYTTLEFEN [HNF4A] ... 4.35
13) SSFFQQFFHCYCPVGFGRRTDPNG [CRY1] ... 2.11

---

# measurementDescription: protein stability index of a GFP-peptide fusion (GPS, HEK-293T) (PSI 1-6); higher = more stable
# conditionSummary: treatment: MLN4924 1 uM, 8 h; c terminus: a fixed tail appended
Tick y if protein stability index is 3 or greater. Tick n if protein stability index is less than 3.

1. YLATAKVLITVEDVNDNSPELTIT [PCDHGA10] ... n
2. WKERDEYITKVSEEVTRLGAQVKE [TRIM15] ... y
3. TLPLQDRELGPEELDELQAAFEEF [CABP4] ... y
4. DYRMELAQAGTPAPTKPHDYRQEQ [SPAG8] ... y
5. LYYYMTQTEELKYSIDQEFLKEYF [NLN] ... n
6. LREMCALSFQEELLYWGIAEDHLD [KCNG1] ... n
7. TDSEHSDAEVSCTDNGTFNLSRGQ [RETREG3] ... y
8. CVNGDVDKPSEPASEEGSESEGSE [SMG5] ... y
9. KVLQLTVRCEALTGELETLKERCA [CCDC89] ... n
10. GNQESKLIILASGGPQALVNIMRT [CTNNB1] ... n
11. SLDESVIYGPGNLSTNNNTLRDHF [SLC2A12] ... y
12. ARFGSGPCKTRDDEPVCGRPLGIR [APMAP] ... y
13. DRSDYFAAWGARVFSFGKHYWELD [TRIM43] ... n
14. SSKSDADSGFLGLRPTSVDPALRR [NOP53] ... y
15. DSSIIRTTQDLFAINRDTAFPGAS [RHOBTB3] ... y
16. EARKYASNLLKAGFIRHTVNKITF [DVL3] ... n
17. SSSSSSSPTSGSPRGSHSSALERL [LURAP1L] ... y
18. KEKTAKHFFALKVMSIPDVIRLKQ [PRKX] ... n
19. KAEELDRRERELQHAALGGTATRQ [SCAMP3] ... y
20. EIQVDSEEPVFEAVINWVKHAKKE [KLHL12] ... y
21. MDVSREEAPQWLESDSCQKCEQPF [WDFY1] ... y
22. KVLGHVNNILISAVLPTAFRVAKK [GDAP1] ... n
23. VTPAQNNLLQPNFEAAFGTTPSTS [SNAP91] ... y
24. HSGYDFGYLIKILTNSNLPEEELD [CNOT7] ... n
25. FVWYTPPTFMIAVFLPIVVLIFKS [STEAP1] ... n
26. LRVSPAEQPRLEFLMRKCGWFVRE [FBXO33] ... n
27. AKSVLKERGLKKIRLGIEGYPTYK [BTBD10] ... n

---

# measurementDescription: protein stability index of a GFP-peptide fusion (GPS, HEK-293T) (PSI 1-6); higher = more stable
# conditionSummary: treatment: MLN4924 1 uM, 8 h; c terminus: a fixed tail appended
reportedEndpoint: protein stability index

1. EGFADGFVKALDDLHKMNHVTPPN [JUNB] ... 4.17
2. PSRAPPSTQEPQSPREGEELKPED [GNAS] ... 5.5
3. GTEQSRGLGHGSTSRGGPWVGTGL [CPOX] ... 3.6
4. DFPEEDDPTNWLRCYYYEDTISTI [NCF4] ... 3.2
5. RAALISRRHLQFWKSHLRNVQRPL [RHOBTB2] ... 2.56
6. VNYLPQNMTQDEFKSLFGSIGDIE [ELAVL3] ... 4
7. QGELADQDVDPVHNLIEQVSLGLG [FBXO33] ... 4.66
8. MVKIFRLLPTKSLVALKCTCCYFK [FBXO34] ... 2.71
9. LSEGCRAELAETIVYARVLALHPE [CCDC3] ... 1.83
10. FRQFGYQDSPGPREAVSQLRELCR [ZNF24] ... 3.38
11. PQTPAAPPATLGEGSADTEDRKLP [EHMT1] ... 5.36
12. ECQLTHSHPACPLEFAYYFRPGHL [ZSWIM9] ... 2.59
13. NQKLFDLRGKFKRPPLRRVRMSAD [TNNI2] ... 3.51
14. DEEVQRKREMILKRKEEEALKDSL [VDR] ... 5.5
15. PGYLVGRNNANGVDLNRNFPDLNT [CPN1] ... 3.67
16. TMLATRNFSAAKSLLKKPDGVKES [CAMK2D] ... 4.33
17. TNLPKGACALLLTSVDHDRAPVVG [DLC1] ... 2.85
18. TPAMSSSSSSRVLLRQQLMRAQAQ [TFE3] ... 3.66
19. NFCEPQDYRPMNHEAFKDELKTFR [CDC25B] ... 4.15
20. GIRLPNGKLKCDICGIICIGPNVL [IKZF1] ... 2.46
21. PTVKDLIGGFTALHYAAMHGRARI [ASB7] ... 2.4
22. SSCVKILLDHNANIDIQNGFLLRY [ASB7] ... 2.5
23. FLLDVIPVDGARYRWQGRRWEPSG [TBX6] ... 2.4
24. AADRHINFCKEQAARISNKGKFST [ZC2HC1A] ... 2.85
25. SDVLIGDILVLLGASLYAISNVCE [SLC35F2] ... 3.36
26. KNIFGTPEFVAPEIVNYEPLGLEA [DAPK3] ... 4.26
27. ISSGVVSIWAQNQVENWSAFAPDF [RBBP5] ... 2.4
28. EWPEYFMAVAFLSAQRSKDPNSQV [DCTD] ... 2.06
29. DLFKSFPGPMDWVPRYTGVAPQDQ [ADAMTS4] ... 3.21
30. GVCYSESQSSASQPRLSYAEMAED [CLCN6] ... 5.28
31. DKERFTTLVQDLANAFQQEAQTSG [CHIT1] ... 4.26
32. LVITDFFGHLINGAIAVFVYASDK [PTGFR] ... 3.56
33. LAAVLVEPKLHTPMYFFLGNLSVL [OR3A1] ... 3.57
34. AEMLRFGDRMFYRDWWNSTSFSNY [SOAT2] ... 2.02
35. ARTQMILLRRSVEGASSDNGCEVK [PHTF1] ... 3.98
36. VRDSDSLAESEFESAAFSQGSRSG [PHTF1] ... 5.13
37. CILVEMHTGEPLFSGSNEVDQMNR [DYRK1B] ... 2.58
38. FIAVTSYQNHKITQLKIENNPFAK [TBX5] ... 2.27
39. EERSPSFGEDYYGPSRSRHRRRSR [CLK3] ... 5.46
40. PDDRLTCSQLLESSYFDSFQEAQI [CDKL4] ... 4.08
41. HSLERAGSKQYSAAIAFTLALFSH [SMG5] ... 2.49
42. ARMLREYQELMSLKLALDMEIATY [KRT71] ... 2.44
43. GSYNGQIGWFPSNYVLEEVDEAAA [NCK2] ... 4.66
44. LSLLVMVISPVIQLQPTFTPMRVA [NSDHL] ... 3.23
45. NGPDCGYGSFHQQYWLDGKIIAVG [ATE1] ... 2.26
46. RTEIISRSWFPSAPGSASSSKVSG [YJU2B] ... 3.97
47. TPPEEQQEAEEPKARVLRSKSLCH [CDC25B] ... 5.37
48. NPQENRWHTIAPMGTRRKHLGCAV [KLHL20] ... 3.11
49. IGNLVKILHGTRGELLLDVAWHPV [RBBP5] ... 2.65
50. LKCDLQERLLCPSLLAGTADGSLR [M1AP] ... 2.5
51. FLDWLRTNPDLIIVCAQSSQSLWN [SMG5] ... 2.36
52. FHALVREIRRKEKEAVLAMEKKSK [RIT1] ... 3.07
53. SALTDRTSRAPSTYTYTSRPRALP [RSPH3] ... 3.7
